Cited source for all entries: patent US20210032365A1

assay_system: T1, human C1s (human, UniProt P09871 16-688)
T1 construct: Analyte in the Biacore assays; also called hC1s; serum-derived human C1s (CompTech)
T1 sequence: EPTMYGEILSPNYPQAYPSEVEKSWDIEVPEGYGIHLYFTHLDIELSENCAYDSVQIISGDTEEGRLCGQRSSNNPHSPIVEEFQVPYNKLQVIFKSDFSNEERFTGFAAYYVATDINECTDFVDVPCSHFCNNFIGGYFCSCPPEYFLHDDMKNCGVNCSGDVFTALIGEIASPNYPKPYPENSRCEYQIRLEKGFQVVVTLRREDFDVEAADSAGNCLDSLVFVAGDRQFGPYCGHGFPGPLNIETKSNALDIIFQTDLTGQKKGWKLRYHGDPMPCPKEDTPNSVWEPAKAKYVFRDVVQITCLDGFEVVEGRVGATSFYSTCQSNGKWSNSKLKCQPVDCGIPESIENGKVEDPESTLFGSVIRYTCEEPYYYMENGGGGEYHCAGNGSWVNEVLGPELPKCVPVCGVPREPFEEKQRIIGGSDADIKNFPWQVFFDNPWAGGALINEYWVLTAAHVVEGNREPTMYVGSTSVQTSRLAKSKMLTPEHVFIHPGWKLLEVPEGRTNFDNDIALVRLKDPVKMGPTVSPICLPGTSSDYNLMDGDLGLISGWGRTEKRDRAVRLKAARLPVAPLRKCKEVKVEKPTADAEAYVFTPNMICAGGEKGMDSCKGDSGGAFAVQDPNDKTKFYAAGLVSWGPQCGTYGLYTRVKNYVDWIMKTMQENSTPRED
assay_summary: SPR (Biacore T200, 37C), Ab captured on protein A/G; pH 5.8, 1.2 mM Ca
readout: kon (M⁻¹ s⁻¹)
Give the quantity in M⁻¹ s⁻¹, number only.

Examples from the recorded data:
>  <binder>
C1_IPN92H0144-SG4GK/IPN93L0024-SK1 (antibody, human IgG4 S228P, kappa, name in Kabat numbering, V domains shown, Substitutions from IPN009VH2, Kabat numbering; also called IPN92H0144/IPN93L0024) VH: EVMLVESGGGLVKPGGSLRLSCAASGFTFSNYAMSWVRQAPGKGLEWVATISSGGSKTYYLDSVKGRFTISRDNSKDTLYLQMNSLRAEDTALYYCARLFTGHAMDYWGQGTLVTVSS VL: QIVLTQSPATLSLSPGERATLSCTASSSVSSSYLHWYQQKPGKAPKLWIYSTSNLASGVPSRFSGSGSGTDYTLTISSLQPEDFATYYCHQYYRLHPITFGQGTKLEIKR

>  <unit_text>
M⁻¹ s⁻¹

>  <meas_value>
1.13e+06

$$$$
>  <binder>
C1_IPN92H0166-SG4GK/IPN93L0024-SK1 (antibody, human IgG4 S228P, kappa, name in Kabat numbering, V domains shown, Substitutions from IPN009VH2, Kabat numbering; also called IPN92H0166/IPN93L0024) VH: EVMLVESGGGLVKPGGSLRLSCAASGFTFSNYAMSWVRQAPGKGLEWVATISSGGSHTYYEDSVKGRFTISRDNSKDTLYLQMNSLRAEDTALYYCARLFTGHAMDYWGQGTLVTVSS VL: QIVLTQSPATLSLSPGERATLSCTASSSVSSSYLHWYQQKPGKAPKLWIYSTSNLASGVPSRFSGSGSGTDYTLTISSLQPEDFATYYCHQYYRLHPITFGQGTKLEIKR

>  <unit_text>
M⁻¹ s⁻¹

>  <meas_value>
600000

$$$$

Now consider the entry below.
What kon value was documented for this binder, C1_IPN92H0261-SG4GK/IPN93L0091-SK1 (antibody, human IgG4 S228P, kappa, name in Kabat numbering, V domains shown, Substitutions from IPN009VH2 / IPN009VK3, Kabat numbering; also called IPN92H0261/IPN93L0091) VH: EVMLVESGGGLVKPGGSLRLSCAASGFTFSNYAMSWVRQAPGKGLEWVATISSGGSHTYELDSVKGRFTISRDNSKDTLYLQMNSLRAEDTALYYCARLFTKHAMDYWGQGTLVTVSS VL: QIVLTQSPATLSLSPGERATLSCTASSSVSSSRLHWYQQKPGKAPKLWIYSTSNLASGVPSRFSGSGSGTDYTLTISSLQPEDFATYYCHQYYRLHPITFGQGTKLEIKR ?
332000
